TARGET_SYSTEM: 血浆激肽释放酶(plasma kallikrein,PK) (human, UniProt P03952 20-638)
Sequence (P03952 20-638 limits assumed): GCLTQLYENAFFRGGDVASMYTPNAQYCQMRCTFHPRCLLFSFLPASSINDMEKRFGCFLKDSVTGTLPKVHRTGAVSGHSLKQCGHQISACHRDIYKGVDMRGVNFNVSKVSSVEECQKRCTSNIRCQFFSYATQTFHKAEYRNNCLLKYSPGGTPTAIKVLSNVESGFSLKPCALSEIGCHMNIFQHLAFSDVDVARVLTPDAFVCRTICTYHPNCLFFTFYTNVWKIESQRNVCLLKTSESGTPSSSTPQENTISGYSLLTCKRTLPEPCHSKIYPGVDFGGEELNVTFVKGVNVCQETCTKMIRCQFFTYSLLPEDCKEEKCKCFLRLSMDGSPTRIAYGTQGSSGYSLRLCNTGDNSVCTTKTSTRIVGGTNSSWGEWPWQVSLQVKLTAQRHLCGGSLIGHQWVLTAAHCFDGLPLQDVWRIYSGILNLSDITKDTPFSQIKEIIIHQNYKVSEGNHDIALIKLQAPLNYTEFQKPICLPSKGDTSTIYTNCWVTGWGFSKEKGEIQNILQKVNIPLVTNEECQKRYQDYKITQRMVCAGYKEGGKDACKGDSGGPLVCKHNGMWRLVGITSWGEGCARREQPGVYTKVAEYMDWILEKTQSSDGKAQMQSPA
TEST_DESCRIPTION: cell-based or functional assay
READOUT_NAME: IC50(nM), PK activity in human plasma activated with Factor XIIa (H-Pro-Phe-Arg-AMC)
One number for each entry, in nM.

Would you mind giving IC50(nM), PK activity in human plasma activated with Factor XIIa (H-Pro-Phe-Arg-AMC) for every binder in the list below?
1. KH19 (antibody, V domains shown) VH: EVQLQQSGAEVVRPGASVKLSCKPSGFNIKDYYMFWLRQRPDQGLEWIGRIDPENGNTVYDPRFQDRASITAVTSSNTAFLQVNSLTSEDTAVYYCARAGSIPSYWGQGTLVTVSA VL: DIQMTQSPSSLSASLGDKITITCKASQDINKYIAWYQHKPGKGPRLLIHYTSSLHQDIPSRFSGSGSGRDYSFSISNLEPEDFAIYYCLQYDDLWTFGGGTKVEIK
2. KH07 (antibody, human IgG4 S228P, kappa, V domains shown) VH: EVQLQQSGAELVKPGASVRLSCTASGFNIKDTYIFWVKQRPKQGLEWIGRIDPENDNTKYDPKIQGKATLTADTSSNTAYLQLSSLTSEDSAIYYCAKGGGLFAYWGQGTLVSVSA VL: DIQMTQSPSAMSASVGDRVTITCEASHDINNYIAWYQQKPGQPPKLLIYYTSTLQSGVPSRFSGSGSGTDFTFTISSLQPEDIATYYCLQYDNLFTFGQGTKVEIKR
3. KH01 (antibody, human IgG4 S228P, kappa, V domains shown) VH: EVQLHQSGAELVKPGASVRLSCTASGFNIKDTYIFWVKQRPEQGLEWIGRIDPENDNTKFDPKIQGKATLTADTSSNTAYLQLGSLTSEDSAIYYCAKGGGLFAYWGQGTLVSVSA VL: DIQMTQSPSSLSASLGGKVTITCKASHDINKYIAWYQHKPGSGPRLLIHFTSTLQSDIPSRFSGSGSGRDYSFSISNLEPEDIATYYCLQYDNLFTFGGGTKLEIKR
4. KH05 (antibody, human IgG4 S228P, kappa, V domains shown) VH: EVQLQQSGAELVKPGASVRLSCTASGFNIKDTYIFWVKQRPKQGLEWIGRIDPENDNTKYDPKIQGKATLTADTSSNTAYLQLSSLTSEDSAIYYCAKGGGLFAYWGQGTLVSVSA VL: DIQMTQSPSSLSASVGDRVTITCEASHDINNYIAWYQQKPGQPPKLLIYYTSTLQSGVPSRFSGSGSGTEFTLTISNLQPEDFATYYCLQYDNLFTFGQGTKVEIKR

Data returned:
0.93
0.863
0.753
0.921

Where do the numbers come from? From patent CN114790245A.
